# ASSAY: Whole plasma pharmacokinetics in dogs (HPLC)
# Format: in vivo, dog
# CONDITION DETAILS: collie crossbred, dog, plasma, iv, 5 mg/kg, dog C, 5 mg kg-1 i.v.; 95% confidence limits 7.1-8.1; read-out: elimination half-life t1/2β (converted)
READOUT TYPE: half-life (h)
One number for each entry, in h.

Ask: Look at this molecule and give its reported half-life. O=C(Cn1ccnc1[N+](=O)[O-])NCc1ccccc1 [benznidazole, N-benzyl-(2-nitroimidazolyl) acetamide]
Result: 7.6

* * *

# ASSAY: Penetration into whole brain of BALB/c mice bearing EMT6 tumours
# Type: in vivo, mouse
# CONDITION DETAILS: male, BALB/c, mouse, whole brain / whole plasma, mice, discussion comparison with MISO; read-out: brain/whole plasma ratio
READOUT TYPE: Kp
Give bare numbers.

Ask: Find the recorded Kp belonging to O=C(Cn1ccnc1[N+](=O)[O-])NCc1ccccc1 [benznidazole, N-benzyl-(2-nitroimidazolyl) acetamide] and report it.
Result: 0.68

* * *

# ASSAY: Penetration into whole brain of BALB/c mice bearing EMT6 tumours
# Assay type: in vivo, mouse
# CONDITION DETAILS: male, BALB/c, mouse, whole brain / whole plasma, mouse; read-out: brain/whole plasma ratios, range of averages
READOUT TYPE: Kp

Ask: Quick one: Kp of O=C(Cn1ccnc1[N+](=O)[O-])NCc1ccccc1 [benznidazole, N-benzyl-(2-nitroimidazolyl) acetamide] ?
Result: 0.61 to 0.76

* * *

# ASSAY: Penetration into brain and peripheral nerve in dogs
# Format: in vivo, dog
# CONDITION DETAILS: dog, brain, po, 25 mg kg-1, dog H, 25 mg kg-1 oral, 4 h; read-out: brain/plasma ratio
READOUT TYPE: Kp at 4 h
Answers are plain numbers.

Ask: # query: Kp at 4 h of entry O=C(Cn1ccnc1[N+](=O)[O-])NCc1ccccc1 [benznidazole, N-benzyl-(2-nitroimidazolyl) acetamide]
Result: 0.43

* * *

# ASSAY: Penetration into brain and peripheral nerve in dogs
# Type: in vivo, dog
# CONDITION DETAILS: dog, brain/plasma, po, 25 mg kg-1, dog H, 25 mg kg-1 oral, 1 h; read-out: brain/plasma ratio
READOUT TYPE: Kp at 1 h

Ask: Kp at 1 h for O=C(Cn1ccnc1[N+](=O)[O-])NCc1ccccc1 [benznidazole, N-benzyl-(2-nitroimidazolyl) acetamide] ?
Result: 0.5

* * *

# ASSAY: Penetration into EMT6 and KHT mouse tumours
# Assay type: in vivo
# CONDITION DETAILS: male, BALB/c, mouse, EMT6 flank tumour / whole plasma; EMT6 flank tumours; read-out: overall tissue/whole plasma ratio
READOUT TYPE: Kp

Ask: Quick check: Kp of O=C(Cn1ccnc1[N+](=O)[O-])NCc1ccccc1 [benznidazole, N-benzyl-(2-nitroimidazolyl) acetamide] ?
Result: 0.69

* * *

# ASSAY: Penetration into brain and peripheral nerve in dogs
# Format: in vivo, dog
# CONDITION DETAILS: dog, peripheral nerve/plasma, po, 25 mg kg-1, dog H, 25 mg kg-1 oral, 2 h; read-out: peripheral nerve/plasma ratio
# Excerpt: Br. J. Cancer (1984), 50, 291-303 Preclinical pharmacokinetics of benznidazole P. Workman', R.A.S. White2, M.I. Walton', L.N. Owen2* & P.R. Twentyman' 1MRC Clinical Oncology and Radiotherapeutics Unit, MRC Centre, Hills Road, Cambridge CB2 2QH, and 2Department of Clinical Veterinary Medicine, University of Cambridge, Madingley Road, Cambridge CB3 OES, UK. […]
READOUT TYPE: Kp at 2 h
One number for each entry.

Ask: Name the recorded Kp at 2 h for O=C(Cn1ccnc1[N+](=O)[O-])NCc1ccccc1 [benznidazole, N-benzyl-(2-nitroimidazolyl) acetamide] .
Result: 0.7
